# SYSTEM_TESTED: mouse NPC1L1 (Mus musculus, UniProt Q6T3U4, N476K)
# Construct: expressed in transfected cells
# ASSAY_COMMENT: Fluorescence NPC1L1 binding assay, HEK-293 cells, fluorescent compound 2 as ligand
# ASSAY_CONDITIONS: Table 3, Mouse; read-out: Ki Mouse NPC1L1
pKi: −log10 of the molar value.
Quick rule: pKi of at least 5 means YES, below that means NO.

Query: Entry `O=C(CS[C@H]1C(=O)N(c2ccc(F)cc2)[C@@H]1c1ccc(O)cc1)c1ccc(F)cc1` : is its pKi no less than 5?
Result: NO

Query: Entry `O=C1[C@H](CC[C@H](O)c2ccc(F)cc2)[C@@H](c2ccc(O)cc2)N1c1ccc(I)cc1` : is its pKi no less than 5?
Result: NO

Query: Entry `O=C(O)[C@H]1O[C@@H](Oc2ccc([C@@H]3[C@@H](CC[C@H](O)c4ccc(F)cc4)C(=O)N3c3ccc(F)cc3)cc2)[C@H](O)[C@@H](O)[C@@H]1O` : is its pKi no less than 5?
Result: YES

----------
# SYSTEM_TESTED: rabbit NPC1L1 (Oryctolagus cuniculus)
# ASSAY_COMMENT: Fluorescence NPC1L1 binding assay, HEK-293 cells, BODIPY-labeled compound 1
# ASSAY_CONDITIONS: Rabbit NPC1L1, competition with compound 1; read-out: Ki
# Procedure: Cell Culture and Membrane Preparation. Each plasmid pCR3.1 harboring NPC1L1 was prepared using standard molecular biology protocols. Stable cell lines expressing human, rhesus monkey, mouse, rat, hamster, canine or rabbit NPC1L1 were generated using Lipofectamine 2000 transfection reagent in HEK-293 cells according to the manufacturer's protocol. Cells were maintained in DMEM supplemented with 10% FBS, 100 U/ml pen/strep, and 500 μg/ml geneticin at 37° C., 5% CO2. […] Fluorescence. […]
PARAMETER_MEASURED: pKi
// field semantics: pKi = negative decimal log of concentration (mol/L)

Query: Tell me its pKi given `O=C(O)[C@H]1O[C@@H](Oc2ccc([C@@H]3[C@@H](CC[C@H](O)c4ccc(F)cc4)C(=O)N3c3ccc(F)cc3)cc2)[C@H](O)[C@@H](O)[C@@H]1O` as the entry.
Result: 6.08

Query: Tell me its pKi given `O=C1[C@H](CC[C@H](O)c2ccc(F)cc2)[C@@H](c2ccc(O)cc2)N1c1ccc(F)cc1` as the entry.
Result: 5.67

----------
# SYSTEM_TESTED: canine NPC1L1 (Canis lupus familiaris)
# ASSAY_COMMENT: Fluorescence NPC1L1 binding assay, HEK-293 cells, BODIPY-labeled compound 1
# ASSAY_CONDITIONS: Canine NPC1L1, competition with compound 1; read-out: Ki
# Method: Cell Culture and Membrane Preparation. Each plasmid pCR3.1 harboring NPC1L1 was prepared using standard molecular biology protocols. Stable cell lines expressing human, rhesus monkey, mouse, rat, hamster, canine or rabbit NPC1L1 were generated using Lipofectamine 2000 transfection reagent in HEK-293 cells according to the manufacturer's protocol. Cells were maintained in DMEM supplemented with 10% FBS, 100 U/ml pen/strep, and 500 μg/ml geneticin at 37° C., 5% CO2. […] Fluorescence. […]
PARAMETER_MEASURED: Ki (nM)
Answer in nM, number only, no unit symbol.

Query: Tell me its Ki given `O=C1[C@H](CC[C@H](O)c2ccc(F)cc2)[C@@H](c2ccc(O)cc2)N1c1ccc(F)cc1` as the entry.
Result: 770

Query: Tell me its Ki given `O=C(O)[C@H]1O[C@@H](Oc2ccc([C@@H]3[C@@H](CC[C@H](O)c4ccc(F)cc4)C(=O)N3c3ccc(F)cc3)cc2)[C@H](O)[C@@H](O)[C@@H]1O` as the entry.
Result: 192

Hey, just so you know, these numbers are from patent US8212016B2.
